The origin of these recorded values is the RNAGym collection of RNA variant scans (doi:10.1073/pnas.2313332121).

B1: TPR 5TU (parent)
chain: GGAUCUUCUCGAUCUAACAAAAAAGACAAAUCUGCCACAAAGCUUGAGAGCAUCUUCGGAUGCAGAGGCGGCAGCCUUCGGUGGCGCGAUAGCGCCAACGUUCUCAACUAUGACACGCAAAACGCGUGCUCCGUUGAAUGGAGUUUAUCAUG

# Variants of: B1
# Test Details: polymerase ribozyme fitness, log enrichment relative to wild type (log ratio); higher = more active; in vitro selection for triplet polymerase activity
Fewer inactive variants are shown than the library holds.
Measured Metric: polymerase ribozyme fitness (log ratio)

Form field: reported polymerase ribozyme fitness (log ratio) of A16U A52U G74A C87A A119U U148G
≤ -4.2

Form field: reported polymerase ribozyme fitness (log ratio) of U82A G92U
-0.55

Form field: reported polymerase ribozyme fitness (log ratio) of U77G C85U C108A A113G
≤ -4.2

Form field: reported polymerase ribozyme fitness (log ratio) of U6G A40U A66G U82A C96A G100U
≤ -4.2

Form field: reported polymerase ribozyme fitness (log ratio) of A3C A16G C99G U102G A106U
≤ -4.2

Form field: reported polymerase ribozyme fitness (log ratio) of A12G G58A A91U U109G
-3.78

Form field: reported polymerase ribozyme fitness (log ratio) of A21U A29U C85U G141C
≤ -4.2

Form field: reported polymerase ribozyme fitness (log ratio) of G68A C85G
≤ -4.2

Form field: reported polymerase ribozyme fitness (log ratio) of C105U A142C
-0.229

Form field: reported polymerase ribozyme fitness (log ratio) of A21C G141C
1.03

Form field: reported polymerase ribozyme fitness (log ratio) of A49G A52G U55A G67A A107U G133C A137G U139C
≤ -4.2

Form field: reported polymerase ribozyme fitness (log ratio) of U15G A89C A119U
-0.888

Form field: reported polymerase ribozyme fitness (log ratio) of A91U A106U G117A G136U
≤ -4.2

Form field: reported polymerase ribozyme fitness (log ratio) of G71U A89U
-2.83

Form field: reported polymerase ribozyme fitness (log ratio) of C54G C87U A106U A137U G140U A142C
≤ -4.2

Form field: reported polymerase ribozyme fitness (log ratio) of U7G A41U C43U U82G G92U U146A
≤ -4.2

Form field: reported polymerase ribozyme fitness (log ratio) of C14A A17G A22U A24C A41C G70A U78A U90C C129U
≤ -4.2

Form field: reported polymerase ribozyme fitness (log ratio) of A26G U77A C87U A89C
≤ -4.2

Form field: reported polymerase ribozyme fitness (log ratio) of A23U G68C C76G G80C A89U U148G
≤ -4.2

Form field: reported polymerase ribozyme fitness (log ratio) of A66C G70A G71A G100U G143A U148G
≤ -4.2

Form field: reported polymerase ribozyme fitness (log ratio) of G59A G67A C108U
≤ -4.2

Form field: reported polymerase ribozyme fitness (log ratio) of U56A C85G
-2.44
